Reported IC50 values for a set of compounds
target: human HSL (Homo sapiens); construct: generate a full length human HSL ORF with a 3′-His6 tag; experiment: Human Hormone-Sensitive Lipase (HSL) enzyme inhibition assay (colorimetric, DMPT substrate); details: human full length HSL-His6, 2,3-dimercapto-1-propanol tributyrate substrate, 37° C. 20 minutes, absorbance at 405 nm; read-out: HSL hum IC50
Sequence (Q05469 whole entry): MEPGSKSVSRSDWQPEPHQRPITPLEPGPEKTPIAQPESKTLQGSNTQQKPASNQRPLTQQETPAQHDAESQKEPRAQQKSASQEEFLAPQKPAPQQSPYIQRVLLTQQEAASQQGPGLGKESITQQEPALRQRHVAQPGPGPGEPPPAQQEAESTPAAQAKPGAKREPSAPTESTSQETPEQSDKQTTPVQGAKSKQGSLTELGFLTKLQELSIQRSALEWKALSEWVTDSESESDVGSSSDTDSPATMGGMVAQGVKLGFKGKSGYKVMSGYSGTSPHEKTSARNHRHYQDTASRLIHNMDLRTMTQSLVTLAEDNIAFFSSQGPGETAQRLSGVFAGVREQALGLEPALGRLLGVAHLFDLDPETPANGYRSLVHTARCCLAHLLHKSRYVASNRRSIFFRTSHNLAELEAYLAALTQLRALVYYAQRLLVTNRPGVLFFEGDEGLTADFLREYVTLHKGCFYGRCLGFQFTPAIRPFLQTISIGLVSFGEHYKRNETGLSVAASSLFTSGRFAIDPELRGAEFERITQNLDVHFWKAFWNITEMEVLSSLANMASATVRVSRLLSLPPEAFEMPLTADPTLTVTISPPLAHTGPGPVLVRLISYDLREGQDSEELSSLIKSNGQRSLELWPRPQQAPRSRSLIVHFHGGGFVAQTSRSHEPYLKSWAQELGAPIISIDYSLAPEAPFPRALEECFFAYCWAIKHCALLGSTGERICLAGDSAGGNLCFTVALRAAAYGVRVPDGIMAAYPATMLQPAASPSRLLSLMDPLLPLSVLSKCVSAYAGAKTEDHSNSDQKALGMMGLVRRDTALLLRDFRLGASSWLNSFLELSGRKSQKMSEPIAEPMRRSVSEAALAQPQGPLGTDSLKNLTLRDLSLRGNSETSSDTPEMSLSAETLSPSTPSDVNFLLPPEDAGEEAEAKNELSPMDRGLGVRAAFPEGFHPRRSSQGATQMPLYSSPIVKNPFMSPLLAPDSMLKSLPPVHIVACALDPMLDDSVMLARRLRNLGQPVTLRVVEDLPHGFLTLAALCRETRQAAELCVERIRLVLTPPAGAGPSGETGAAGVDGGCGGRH

| COMPOUND | IC50 (nM) |
| --- | --- |
| C[C@]1(O)CC[C@]2(CCN(c3ccc(C4CC4)cc3)C2=O)CC1 [Example 73] | 150 |
| CC(C)OC[C@]1(O)CC[C@]2(CCN(c3ccc(O[C@@H](C)C(F)(F)F)cc3)C2=O)CC1 [Example 308] | 10 |
| CCc1ccc(CCN2CC[C@]3(CC[C@@](O)(C(C)C)CC3)C2=O)cc1 [Example 161] | 10 |
| CC(C)Oc1ccc(N2CC[C@]3(CC[C@@](O)(c4c(Br)nnn4C)CC3)C2=O)cc1 [Example 212] | 10 |
| CCC[C@]1(O)CC[C@]2(CCN(c3ccc(C4CC4)cc3)C2=O)CC1 [Example 75] | 30 |
| C[C@]1(O)CC[C@@]2(CCN(c3ccc(CC(F)(F)F)cc3)C2=O)CC1 [Example 78] | 900 |
| COC[C@]1(O)CC[C@]2(CCN(c3ccc(OCC(F)(F)F)nc3)C2=O)CC1 [Example 110] | 190 |
| CCC[C@]1(O)CC[C@@]2(CCN(c3ccc(OC(C)C(F)(F)F)cc3)C2=O)CC1 (some centres unmarked) [Example 163] | 790 |
| CCOC[C@]1(O)CC[C@]2(CCN(c3ccc(O[C@@H](C)C(F)(F)F)cc3)C2=O)CC1 [Example 251] | 10 |
| CCc1ccc(CCN2CC[C@]3(CC[C@@](O)(COC(C)C)CC3)C2=O)cc1 [Example 375] | 14.2 |
| CC[C@]1(O)CC[C@]2(CCN(c3ccc(CCC(F)(F)F)cc3)C2=O)CC1 [Example 169] | 50 |
| CCCSC[C@]1(O)CC[C@]2(CCN(c3ccc(OCC(F)(F)F)cc3)C2=O)CC1 [Example 294] | 20 |
| C[C@H](Oc1ccc(N2CC[C@]3(CC[C@@](O)(COCC(F)F)CC3)C2=O)cc1)C(F)(F)F [Example 299] | 10 |
| CCC[C@]1(O)CC[C@]2(CCN(c3ccc(OCC(F)(F)F)nc3)C2=O)CC1 [Example 167] | 40 |
| Cc1cccc(CO[C@H]2CC[C@@]3(CCN(c4ccc(OC(F)(F)F)cc4)C3=O)CC2)n1 [Example 16] | 100 |
| CCCOC[C@]1(O)CC[C@]2(CCN(c3ccc(C4CC4)cc3)C2=O)CC1 [Example 272] | 20 |
| O=C1N(c2ccc(OCC(F)(F)F)nc2)CC[C@]12CC[C@@](O)(C(F)(F)F)CC2 [Example 178] | 150 |

---

biological target: human HSL (Homo sapiens); construct: generate a full length human HSL ORF with a 3′-His6 tag; assay: Human Hormone-Sensitive Lipase (HSL) enzyme inhibition assay (colorimetric, DMPT substrate); conditions: human full length HSL-His6, 2,3-dimercapto-1-propanol tributyrate substrate, 37° C. 20 minutes, absorbance at 405 nm; read-out: HSL hum IC50
We begin with a simple list: items and their reported IC50.
METRIC NAME: IC50 (nM)

| COMPOUND | METRIC NAME | QUANTITATIVE RESULT |
| --- | --- | --- |
| CC(C)(C)c1ccc(N2CCC3(CCC(O)(COc4ccccn4)CC3)C2=O)cc1 (centres unmarked) | IC50 | 30 |
| CCC[C@]1(O)CC[C@]2(CCN(c3ccc(OC(F)(F)F)cc3)C2=O)CC1 | IC50 | 20 |
| CC(C)[S+]([O-])C[C@]1(O)CC[C@]2(CCN(c3ccc(OCC(F)(F)F)cc3)C2=O)CC1 (some centres unmarked) | IC50 | 200 |
| COC[C@]1(O)CC[C@]2(CCN(c3ccc(C(C)(C)C)cc3)C2=O)CC1 | IC50 | 20 |
| C=CCC[C@]1(O)CC[C@@]2(CCN(c3ccc(OC(F)(F)F)cc3)C2=O)CC1 | IC50 | 440 |
| CC[C@]1(O)CC[C@@]2(CCN(c3ccc(CC(F)(F)F)cc3)C2=O)CC1 | IC50 | 910 |
| CC(C)OC[C@]1(O)CC[C@@]2(CCN(c3ccc(O[C@@H](C)C(F)(F)F)cc3)C2=O)CC1 | IC50 | 200 |
| CC(C)(C)c1ccc(N2CC[C@]3(CC[C@@](O)(COCC(F)(F)F)CC3)C2=O)cc1 | IC50 | 10 |
